From: patent US20090169562A1

# testedOn: T1, bovine serum albumin (BSA) (bovine, UniProt P02769 25-607)
# T1 construct: Control antigen coated at 1% in PBS (pH 7.4); also called negative control antigen
# assayOverview: phage ELISA, BSA coated

# binder, binding result
measured = [
    ("SC06-242 (scFv, Vl 132-237); also called single-chain phage antibody SC06-242) scFv: EVQLVESGPGLVKPSETLSLTCTVSGGSISSYYWSWIRQPPGKGLEWIGYIYYTGTTNYNPSLNSRVTISADTSKNQFSLKLSSVTAADTAVYYCARGGQTAGVWGKGTTVTVSSGTGGSGGTGSGTGGSTQSVLTQPPSVSVAPGQTARITCGGYNIGRKSVHWYQQKPGLAPVLVVYDNSDRPSGIPARFSGSNSGNTATLTISGTQAMDEADYYCQAWDRGTAVFGTGTKVTVL", "no binding"),
    ("SC06-198 (scFv, Vl 133-243); also called single-chain phage antibody SC06-198) scFv: QLQLQESGPGLVKPSETLSLTCAVSGYSITSGYYWGWVRQPPGKGLEWIGSIYHTGSTYYNPSLKSRVTISVDTSKNQFSLKLNSLTAADTAVYFCASQSPAFDFWGQGTMVTVSSGTGGSGGTGSGTGGSTQSVLTQPPSVSGAPGQRVTISCTGSSSNIGTGYDVHWYQQLPGTAPKLLIYGNNNRPSGVPDRFSGSKSGTSASLAITGLQAEDEADYYCATWDDSLNGWVFGGGTKLTVP", "no binding"),
    ("SC06-079 (scFv, Vl 133-242); also called single-chain phage antibody SC06-079) scFv: EVQLVESGGGLVQPGGSLRLSCAASGFTFSSYAMSWVRQAPGKGLEWVSAISGTGGSAYYADSVKGRFTISRDNSKNTVYLQMNSLRAEDTAVYYCAKGHSSGTNWGQGTLVTVSSGTGGSGGTGSGTGGSTSYVLTQPPSASGTPGQRVTISCSGSSSNIGSNFVYWYQQLPGTAPKLLIYRNNQRPSGVPDRFSGSKSGTSASLAISGLRSEDEADYYCAAWDDSLSGVLFGGGTQLTVL", "no binding"),
]
